# measurement_target: ligand binding domain of human RORγ (A262-S507) (Homo sapiens)
# Construct: made in house; host or cells: E. coli
# measurement_description: General RORγ SPA binding assay (competition with [3H]25-hydroxycholesterol)
# experimental_conditions: RORγ SPA binding assay, inhibition of [3H]25-hydroxycholesterol binding; read-out: IC50
recorded_endpoint: IC50 (nM)
Response body: numeric value in nM, unit text excluded.

Cc1ncc(C(O)(CCO)COc2cccc(C(F)(F)F)n2)c(C2CCN(C(=O)Nc3c(F)cccc3F)CC2)n1 (stereo not shown): 10.9
Cc1cc(C)cc(CNC(=O)c2cnc(C)nc2C2CCN(C(=O)Cc3cccc(F)c3)CC2)c1: 235
Cc1nc(C)c(-c2nnc(-c3ccnc(C(F)(F)F)n3)o2)c(C2CCN(C(=O)Nc3ccccc3OC(F)(F)F)CC2)n1: 159
Cc1ncc(C(=O)NCc2ccc(Cl)nc2)c(C2CCN(C(=O)Cc3c(F)cccc3F)CC2)n1: 242
CCNC(=O)c1cc(CNC(=O)c2cnc(C)nc2C2CCN(C(=O)Cc3c(F)cccc3F)CC2)ccn1: 1340

QUERY: Would you mind telling me what IC50 value was observed for Cc1cc(C)cc(CNC(=O)c2c(C)nc(C)nc2C2CCN(C(=O)Cc3c(F)cccc3F)CC2)c1 ?
RESULT: 9.8

QUERY: Would you mind telling me what IC50 value was observed for Cc1ncc(C(C)(O)CN(C)c2ccnc(C(F)(F)F)n2)c(C2CCN(C(=O)Nc3c(F)cccc3F)CC2)n1 (stereo not shown) ?
RESULT: 196

====

# measurement_target: ligand binding domain of human RORγ (A262-S507) (Homo sapiens)
# Construct: made in house; host or cells: E. coli
# Sequence (P51449 262-507): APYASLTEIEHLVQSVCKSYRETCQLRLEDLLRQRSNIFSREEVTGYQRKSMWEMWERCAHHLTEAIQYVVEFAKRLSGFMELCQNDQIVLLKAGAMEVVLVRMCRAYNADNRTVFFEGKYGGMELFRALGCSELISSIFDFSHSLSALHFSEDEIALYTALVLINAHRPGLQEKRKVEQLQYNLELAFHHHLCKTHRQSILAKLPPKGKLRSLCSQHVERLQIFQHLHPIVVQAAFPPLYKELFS
# measurement_description: General RORγ SPA binding assay (competition with [3H]25-hydroxycholesterol)
# experimental_conditions: RORγ SPA binding assay, inhibition of [3H]25-hydroxycholesterol binding; read-out: IC50
recorded_endpoint: IC50 (nM)
Response body: numeric value in nM, unit text excluded.

C/C(=N\Oc1ccnc(C(F)(F)F)c1)c1cnc(C)nc1C1CCN(C(=O)Cc2c(F)cccc2F)CC1: 4.8

# input for lookup
QUERY: Return IC50 measured with ligand binding domain of human RORγ (A262-S507) (Homo sapiens) given this molecule: Cc1ncc(/C(COc2cccc(C(F)(F)F)n2)=N/O)c(C2CCN(C(=O)Nc3c(F)cccc3F)CC2)n1
RESULT: 141

====

# measurement_target: ligand binding domain of human RORγ (A262-S507) (Homo sapiens, UniProt P51449)
# Construct: made in house; host or cells: E. coli
# Sequence (P51449 262-507): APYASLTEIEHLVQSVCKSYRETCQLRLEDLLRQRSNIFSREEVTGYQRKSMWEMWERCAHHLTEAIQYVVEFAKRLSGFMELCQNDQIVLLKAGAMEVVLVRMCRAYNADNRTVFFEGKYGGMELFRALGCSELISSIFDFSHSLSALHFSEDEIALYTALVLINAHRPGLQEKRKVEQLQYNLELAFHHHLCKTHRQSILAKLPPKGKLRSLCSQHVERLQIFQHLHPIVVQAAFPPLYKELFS
# measurement_description: General RORγ SPA binding assay (competition with [3H]25-hydroxycholesterol)
# experimental_conditions: RORγ SPA binding assay, inhibition of [3H]25-hydroxycholesterol binding; read-out: IC50
recorded_endpoint: pIC50
// scale note: pIC50 = -log10(conc_M); give the bare number

QUERY: Would you mind telling me what pIC50 value was observed for CC(=O)Nc1nc(C)c(C(O)COc2cccc(C(F)(F)F)n2)c(C2CCN(C(=O)Nc3c(F)cccc3F)CC2)n1 (stereo not shown) ?
RESULT: 7.68

QUERY: Would you mind telling me what pIC50 value was observed for Cc1ncc(C(C)(O)CNc2nccc(C(F)(F)F)n2)c(C2CCN(C(=O)Cc3c(F)cccc3F)CC2)n1 (stereo not shown) ?
RESULT: 7.73

// provenance: patent US10035790B2
